Molecular target: human Y2R (Homo sapiens)
Sequence (P49146 whole entry): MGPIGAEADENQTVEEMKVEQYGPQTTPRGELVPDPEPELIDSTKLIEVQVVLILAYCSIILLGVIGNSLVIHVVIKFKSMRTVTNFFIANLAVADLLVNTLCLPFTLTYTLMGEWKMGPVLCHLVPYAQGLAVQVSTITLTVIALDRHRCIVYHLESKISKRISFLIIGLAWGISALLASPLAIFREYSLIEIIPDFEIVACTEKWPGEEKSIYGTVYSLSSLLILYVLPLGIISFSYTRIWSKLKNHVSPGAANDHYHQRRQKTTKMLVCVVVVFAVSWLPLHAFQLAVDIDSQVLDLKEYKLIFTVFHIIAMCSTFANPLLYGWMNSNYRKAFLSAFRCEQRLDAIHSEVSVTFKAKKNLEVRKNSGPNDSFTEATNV
Assay: biochemical
Where a SMILES comes first, the peptide text is derived from it. [ ]: non-standard residue; d: D form. The star is where a group is joined. Phe(4-F) = N[C@@H](Cc1ccc(F)cc1)C(=O)O; Cyclohexanecarbonyl = O=C(C1CCCCC1)*; Cha = N[C@@H](CC1CCCCC1)C(=O)O; Aib = CC(C)(N)C(=O)O; Bz = O=C(c1ccccc1)*
Reported EC50 values for the following compounds.
The figure you give is taken to be in nM; do not add the unit.

| COMPOUND | TARGET_UNDER_TEST | RECORDED_NUMBER |
| --- | --- | --- |
| CC[C@H](C)[C@H](NC(=O)[C@H](Cc1ccc(O)cc1)NC(=O)[C@H](C)NC(=O)[C@H](CCCNC(=N)N)NC(=O)c1ccccc1)C(=O)N[C@@H](CC(N)=O)C(=O)N[C@@H](CC(C)C)C(=O)N[C@H](C(=O)N[C@H](C(=O)N[C@@H](CCCNC(=N)N)C(=O)N[C@@H](CCC(N)=O)C(=O)N[C@@H](CCCNC(=N)N)C(=O)N[C@@H](Cc1ccc(O)cc1)C(N)=O)[C@@H](C)O)[C@@H](C)CC [Compound 1, benzoyl-[Ala^26,Ile^28,31]PYY(25–36)] (Bz-RAYINLITRQRY-NH2) | human Y2R (Homo sapiens) | 1.7 |
| CC[C@H](C)[C@H](NC(=O)[C@H](CC1CCCCC1)NC(=O)[C@H](Cc1c[nH]cn1)NC(=O)[C@H](CCCNC(=N)N)NC(=O)C1CCCCC1)C(=O)N[C@@H](CC(N)=O)C(=O)N[C@@H](Cc1c[nH]c2ccccc12)C(=O)NC(C)(C)C(=O)N[C@H](C(=O)N[C@@H](CCCNC(=N)N)C(=O)N[C@@H](CCC(N)=O)C(=O)N[C@@H](CCCNC(=N)N)C(=O)N[C@@H](CC1CCCCC1)C(N)=O)[C@@H](C)O [Compound 17] (Cyclohexanecarbonyl-RH[Cha]INW[Aib]TRQR[Cha]-NH2) | human Y2R (Homo sapiens) | 1.9 |

Query (compound): CC[C@H](C)[C@H](NC(=O)[C@H](CC1CCCCC1)NC(=O)[C@H](Cc1c[nH]cn1)NC(=O)[C@H](CCCNC(=N)N)NC(=O)C1CCCCC1)C(=O)N[C@@H](CC(N)=O)C(=O)N[C@@H](Cc1c[nH]c2ccccc12)C(=O)N[C@H](C(=O)N[C@H](C(=O)N[C@@H](CCCNC(=N)N)C(=O)N[C@@H](CCC(N)=O)C(=O)N[C@@H](CCCNC(=N)N)C(=O)N[C@@H](CC1CCCCC1)C(N)=O)[C@@H](C)O)[C@@H](C)CC [Compound 13] (Cyclohexanecarbonyl-RH[Cha]INWITRQR[Cha]-NH2) ; field requested: EC50
1.7

Now try CC[C@H](C)[C@H](NC(=O)[C@H](CC1CCCCC1)NC(=O)[C@H](Cc1c[nH]cn1)NC(=O)[C@H](CCCNC(=N)N)NC(=O)c1ccccc1)C(=O)N[C@@H](CC(N)=O)C(=O)N[C@@H](Cc1c[nH]c2ccccc12)C(=O)NC(C)(C)C(=O)N[C@H](C(=O)N[C@@H](CCCNC(=N)N)C(=O)N[C@@H](CCC(N)=O)C(=O)N[C@@H](CCCNC(=N)N)C(=O)N[C@@H](CC1CCCCC1)C(N)=O)[C@@H](C)O [Compound 11] (Bz-RH[Cha]INW[Aib]TRQR[Cha]-NH2) .
2.4

Now try C[C@@H](O)[C@H](NC(=O)C(C)(C)NC(=O)[C@H](Cc1c[nH]c2ccccc12)NC(=O)[C@H](CC(N)=O)NC(=O)[C@H](CC1CCCCC1)NC(=O)[C@H](CC1CCCCC1)NC(=O)[C@H](Cc1c[nH]cn1)NC(=O)[C@H](CCCNC(=N)N)NC(=O)C1CCCCC1)C(=O)N[C@@H](CCCNC(=N)N)C(=O)N[C@@H](CCC(N)=O)C(=O)N[C@@H](CCCNC(=N)N)C(=O)N[C@@H](CC1CCCCC1)C(N)=O [Compound 27] (Cyclohexanecarbonyl-RH[Cha][Cha]NW[Aib]TRQR[Cha]-NH2) .
2.2

Now try CC[C@H](C)[C@H](NC(=O)[C@H](CC1CCCCC1)NC(=O)[C@H](Cc1c[nH]cn1)NC(=O)[C@H](CCCNC(=N)N)NC(=O)c1ccccc1)C(=O)N[C@@H](CC(N)=O)C(=O)N[C@@H](CC(C)C)C(=O)N[C@@H](CCCCN)C(=O)N[C@H](C(=O)N[C@@H](CCCNC(=N)N)C(=O)N[C@@H](CCC(N)=O)C(=O)N[C@@H](CCCNC(=N)N)C(=O)N[C@@H](CC1CCCCC1)C(N)=O)[C@@H](C)O [Compound 9] (Bz-RH[Cha]INLKTRQR[Cha]-NH2) .
0.62

Now try CC[C@H](C)[C@H](NC(=O)[C@H](CC1CCCCC1)NC(=O)[C@H](Cc1c[nH]cn1)NC(=O)[C@H](CCCNC(=N)N)NC(=O)c1ccccc1)C(=O)N[C@@H](CC(N)=O)C(=O)N[C@@H](CC(C)C)C(=O)N[C@H](C(=O)N[C@H](C(=O)N[C@@H](CCCNC(=N)N)C(=O)N[C@@H](CCC(N)=O)C(=O)N[C@@H](CCCNC(=N)N)C(=O)N[C@@H](Cc1ccc(O)cc1)C(N)=O)[C@@H](C)O)[C@@H](C)CC [Compound 3] (Bz-RH[Cha]INLITRQRY-NH2) .
1.9

Now try CC[C@H](C)[C@H](NC(=O)[C@H](CC1CCCCC1)NC(=O)[C@H](Cc1c[nH]cn1)NC(=O)[C@H](CCCNC(=N)N)NC(=O)c1ccccc1)C(=O)N[C@@H](CC(N)=O)C(=O)N[C@@H](Cc1c[nH]c2ccccc12)C(=O)N[C@@H](CCCCN)C(=O)N[C@H](C(=O)N[C@@H](CCCNC(=N)N)C(=O)N[C@@H](CCC(N)=O)C(=O)N[C@@H](CCCNC(=N)N)C(=O)N[C@@H](CC1CCCCC1)C(N)=O)[C@@H](C)O [Compound 12] (Bz-RH[Cha]INWKTRQR[Cha]-NH2) .
0.84

Now try CC[C@H](C)[C@H](NC(=O)[C@H](CC1CCCCC1)NC(=O)[C@H](Cc1c[nH]cn1)NC(=O)[C@H](CCCNC(=N)N)NC(=O)c1ccccc1)C(=O)N[C@@H](CC(N)=O)C(=O)N[C@@H](Cc1ccc(F)cc1)C(=O)N[C@H](C(=O)N[C@H](C(=O)N[C@@H](CCCNC(=N)N)C(=O)N[C@@H](CCC(N)=O)C(=O)N[C@@H](CCCNC(=N)N)C(=O)N[C@@H](CC1CCCCC1)C(N)=O)[C@@H](C)O)[C@@H](C)CC [Compound 6] (Bz-RH[Cha]IN[Phe(4-F)]ITRQR[Cha]-NH2) .
2.9
